- Tested on: IRAK1 (human)
- Run description: Caliper, Mobility shift assay off-chip
- Measurement setup: compound 0.02 µM
Examples of molecules with documented inhibition follow.
Parameter: inhibition (%)

In [3]: df
Out[3]:
                                smiles_repr   parameter  observed_value
0  COc1cc2c(Oc3ccc4[nH]c(C)cc4c3F)ncnc2cc1OCCCN1CCCC1  inhibition           -19.1
1  Cc1ccc(Nc2nccc(N(C)c3ccc4c(C)n(C)nc4c3)n2)cc1S(N)(=O)=O  inhibition           -17.4
2  CNC(=O)c1ccccc1Sc1ccc2c(/C=C/c3ccccn3)n[nH]c2c1  inhibition             4.3
3  CNC(=O)c1cc(Oc2ccc(NC(=O)Nc3ccc(Cl)c(C(F)(F)F)c3)cc2)ccn1  inhibition              -4

---

Examples of compounds with documented inhibition follow.
- Tested on: CDK9 (human) (UniProt P50750)
- Sequence (P50750 whole entry, looked up): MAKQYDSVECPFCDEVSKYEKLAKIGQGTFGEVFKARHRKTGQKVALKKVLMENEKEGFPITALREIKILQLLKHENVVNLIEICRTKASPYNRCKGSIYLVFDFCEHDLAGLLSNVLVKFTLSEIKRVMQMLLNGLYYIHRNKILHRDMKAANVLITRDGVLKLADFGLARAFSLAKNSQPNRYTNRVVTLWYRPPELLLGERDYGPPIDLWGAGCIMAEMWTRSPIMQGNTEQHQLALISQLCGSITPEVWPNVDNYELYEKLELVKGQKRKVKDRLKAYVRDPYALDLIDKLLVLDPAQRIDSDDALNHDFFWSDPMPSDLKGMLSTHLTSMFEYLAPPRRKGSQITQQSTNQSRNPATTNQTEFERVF
- Run description: Caliper, Mobility shift assay off-chip
- Measurement setup: compound 0.02 µM
Parameter: inhibition (%)

>>> df
                                smiles_repr                      tested_on   parameter  observed_value
0  CNC(=O)c1cc(Oc2ccc(NC(=O)Nc3ccc(Cl)c(C(F)(F)F)c3)cc2)ccn1  CDK9 (human) (UniProt P50750)  inhibition            -7.5
1  CNC(=O)c1ccccc1Sc1ccc2c(/C=C/c3ccccn3)n[nH]c2c1  CDK9 (human) (UniProt P50750)  inhibition            -6.4
2  Cc1ccc(Nc2nccc(N(C)c3ccc4c(C)n(C)nc4c3)n2)cc1S(N)(=O)=O  CDK9 (human) (UniProt P50750)  inhibition            -2.5
3  COc1cc2c(Oc3ccc4[nH]c(C)cc4c3F)ncnc2cc1OCCCN1CCCC1  CDK9 (human) (UniProt P50750)  inhibition            -3.2

---

- Tested on: PRKCA (human) (UniProt P17252)
- Run description: Caliper, Mobility shift assay off-chip
- Measurement setup: compound 0.02 µM
Examples of compounds with documented inhibition follow.
Parameter: inhibition (%)

In [3]: df
Out[3]:
                                smiles_repr  observed_value
0  CNC(=O)c1cc(Oc2ccc(NC(=O)Nc3ccc(Cl)c(C(F)(F)F)c3)cc2)ccn1             1.2
1  CNC(=O)c1ccccc1Sc1ccc2c(/C=C/c3ccccn3)n[nH]c2c1             0.7
2  COc1cc2c(Oc3ccc4[nH]c(C)cc4c3F)ncnc2cc1OCCCN1CCCC1            10.1
3  Cc1ccc(Nc2nccc(N(C)c3ccc4c(C)n(C)nc4c3)n2)cc1S(N)(=O)=O            -0.8

---

- Tested on: TBK1 (human) (UniProt Q9UHD2)
- Sequence (Q9UHD2 whole entry, looked up): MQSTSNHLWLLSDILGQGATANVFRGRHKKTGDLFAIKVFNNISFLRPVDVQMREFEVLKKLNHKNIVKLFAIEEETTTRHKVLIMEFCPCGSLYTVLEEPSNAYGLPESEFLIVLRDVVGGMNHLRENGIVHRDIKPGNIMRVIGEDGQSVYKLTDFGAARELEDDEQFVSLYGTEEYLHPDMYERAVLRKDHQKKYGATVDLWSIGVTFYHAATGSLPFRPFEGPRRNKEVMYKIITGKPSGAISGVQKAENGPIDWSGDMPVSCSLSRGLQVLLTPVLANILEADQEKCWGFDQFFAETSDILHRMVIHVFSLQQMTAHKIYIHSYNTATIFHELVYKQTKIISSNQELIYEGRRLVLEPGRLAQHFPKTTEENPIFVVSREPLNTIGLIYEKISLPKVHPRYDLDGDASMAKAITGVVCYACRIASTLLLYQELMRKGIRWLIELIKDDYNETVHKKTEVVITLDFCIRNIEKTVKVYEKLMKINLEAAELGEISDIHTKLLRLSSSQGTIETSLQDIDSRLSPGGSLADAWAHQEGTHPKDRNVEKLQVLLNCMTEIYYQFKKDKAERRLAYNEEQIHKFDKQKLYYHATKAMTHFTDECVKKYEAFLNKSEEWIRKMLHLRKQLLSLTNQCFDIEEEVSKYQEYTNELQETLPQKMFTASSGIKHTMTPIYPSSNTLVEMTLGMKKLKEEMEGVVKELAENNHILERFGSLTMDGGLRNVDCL
- Run description: Caliper, Mobility shift assay off-chip
- Measurement setup: compound 0.2 µM
Examples of compounds with documented inhibition follow.
Parameter: inhibition

In [3]: df
Out[3]:
                                smiles_repr  observed_value
0  CNC(=O)c1cc(Oc2ccc(NC(=O)Nc3ccc(Cl)c(C(F)(F)F)c3)cc2)ccn1           -1.1%
1  COc1cc2c(Oc3ccc4[nH]c(C)cc4c3F)ncnc2cc1OCCCN1CCCC1           -1.6%
2  Cc1ccc(Nc2nccc(N(C)c3ccc4c(C)n(C)nc4c3)n2)cc1S(N)(=O)=O           -1.1%
3  CCN(CC)CCNC(=O)c1c(C)[nH]c(/C=C2\C(=O)Nc3ccc(F)cc32)c1C           28.1%

---

- Tested on: CSNK2A2 (human)
- Run description: Caliper, Mobility shift assay off-chip
- Measurement setup: compound 0.2 µM
Parameter: inhibition (%)

>>> df
                                smiles_repr        tested_on  observed_value
0  CNC(=O)c1cc(Oc2ccc(NC(=O)Nc3ccc(Cl)c(C(F)(F)F)c3)cc2)ccn1  CSNK2A2 (human)             0.9
1  CCN(CC)CCNC(=O)c1c(C)[nH]c(/C=C2\C(=O)Nc3ccc(F)cc32)c1C  CSNK2A2 (human)             4.5
2  COc1cc2c(Oc3ccc4[nH]c(C)cc4c3F)ncnc2cc1OCCCN1CCCC1  CSNK2A2 (human)            -1.2
3  Cc1ccc(Nc2nccc(N(C)c3ccc4c(C)n(C)nc4c3)n2)cc1S(N)(=O)=O  CSNK2A2 (human)            -1.4

---

- Tested on: TXK (human) (UniProt P42681)
- Sequence (P42681 whole entry, looked up): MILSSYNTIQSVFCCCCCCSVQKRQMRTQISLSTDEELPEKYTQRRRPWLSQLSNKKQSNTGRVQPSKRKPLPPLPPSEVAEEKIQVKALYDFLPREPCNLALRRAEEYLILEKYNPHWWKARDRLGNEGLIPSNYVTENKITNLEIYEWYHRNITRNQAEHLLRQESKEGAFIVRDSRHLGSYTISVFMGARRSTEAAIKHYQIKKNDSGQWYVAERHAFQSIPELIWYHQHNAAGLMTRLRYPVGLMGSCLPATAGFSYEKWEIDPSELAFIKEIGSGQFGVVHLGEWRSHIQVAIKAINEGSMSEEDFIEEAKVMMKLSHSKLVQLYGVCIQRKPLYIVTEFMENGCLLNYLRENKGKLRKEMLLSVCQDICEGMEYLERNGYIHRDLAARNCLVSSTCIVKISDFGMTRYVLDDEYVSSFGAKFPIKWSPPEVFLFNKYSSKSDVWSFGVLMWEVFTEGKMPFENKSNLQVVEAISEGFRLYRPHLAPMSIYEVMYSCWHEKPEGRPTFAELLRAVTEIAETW
- Run description: Caliper, Mobility shift assay off-chip
- Measurement setup: compound 0.02 µM
Parameter: inhibition (%)

>>> df
                                smiles_repr  observed_value
0  CNC(=O)c1ccccc1Sc1ccc2c(/C=C/c3ccccn3)n[nH]c2c1            -3.9
1  COc1cc2c(Oc3ccc4[nH]c(C)cc4c3F)ncnc2cc1OCCCN1CCCC1            -0.7
2  CNC(=O)c1cc(Oc2ccc(NC(=O)Nc3ccc(Cl)c(C(F)(F)F)c3)cc2)ccn1            -6.1
3  Cc1ccc(Nc2nccc(N(C)c3ccc4c(C)n(C)nc4c3)n2)cc1S(N)(=O)=O             3.3

---

- Tested on: PTK2 (human)
- Run description: Caliper, Mobility shift assay off-chip
- Measurement setup: compound 0.02 µM
Examples of molecules with documented inhibition follow.
Parameter: inhibition (%)

In [3]: df
Out[3]:
                                smiles_repr   parameter  value_units  observed_value
0  CNC(=O)c1ccccc1Sc1ccc2c(/C=C/c3ccccn3)n[nH]c2c1  inhibition            %            -5.9
1  Cc1ccc(Nc2nccc(N(C)c3ccc4c(C)n(C)nc4c3)n2)cc1S(N)(=O)=O  inhibition            %              -2
2  CNC(=O)c1cc(Oc2ccc(NC(=O)Nc3ccc(Cl)c(C(F)(F)F)c3)cc2)ccn1  inhibition            %            -4.6
3  COc1cc2c(Oc3ccc4[nH]c(C)cc4c3F)ncnc2cc1OCCCN1CCCC1  inhibition            %            -5.3

---

- Tested on: NEK6 (human) (UniProt Q9HC98)
- Sequence (Q9HC98 whole entry, looked up): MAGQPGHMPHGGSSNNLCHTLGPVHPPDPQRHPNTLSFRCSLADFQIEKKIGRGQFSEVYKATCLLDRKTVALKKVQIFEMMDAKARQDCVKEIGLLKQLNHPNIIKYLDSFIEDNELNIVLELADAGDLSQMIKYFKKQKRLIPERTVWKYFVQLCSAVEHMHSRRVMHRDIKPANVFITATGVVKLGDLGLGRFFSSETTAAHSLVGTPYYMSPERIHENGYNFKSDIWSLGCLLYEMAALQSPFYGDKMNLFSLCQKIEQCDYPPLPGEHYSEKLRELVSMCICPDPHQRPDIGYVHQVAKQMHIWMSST
- Run description: Caliper, Mobility shift assay off-chip
- Measurement setup: compound 0.2 µM
Parameter: inhibition (%)

>>> print(df.to_string())
                                smiles_repr  observed_value
0  Cc1ccc(Nc2nccc(N(C)c3ccc4c(C)n(C)nc4c3)n2)cc1S(N)(=O)=O            -1.2
1  COc1cc2c(Oc3ccc4[nH]c(C)cc4c3F)ncnc2cc1OCCCN1CCCC1            -3.5
2  CCN(CC)CCNC(=O)c1c(C)[nH]c(/C=C2\C(=O)Nc3ccc(F)cc32)c1C            -1.5
3  CNC(=O)c1cc(Oc2ccc(NC(=O)Nc3ccc(Cl)c(C(F)(F)F)c3)cc2)ccn1            -6.1

---

- Tested on: MAP2K4 (human)
- Run description: ELISA
- Measurement setup: compound 0.2 µM
Parameter: inhibition (%)

In [3]: df
Out[3]:
                                smiles_repr   parameter  observed_value
0  CCN(CC)CCNC(=O)c1c(C)[nH]c(/C=C2\C(=O)Nc3ccc(F)cc32)c1C  inhibition             2.8
1  Cc1ccc(Nc2nccc(N(C)c3ccc4c(C)n(C)nc4c3)n2)cc1S(N)(=O)=O  inhibition             9.5
2  CNC(=O)c1cc(Oc2ccc(NC(=O)Nc3ccc(Cl)c(C(F)(F)F)c3)cc2)ccn1  inhibition             3.6
3  COc1cc2c(Oc3ccc4[nH]c(C)cc4c3F)ncnc2cc1OCCCN1CCCC1  inhibition            -5.2

---

Examples of compounds with documented inhibition follow.
- Tested on: ERBB4 (human) (UniProt Q15303)
- Sequence (Q15303 whole entry, looked up): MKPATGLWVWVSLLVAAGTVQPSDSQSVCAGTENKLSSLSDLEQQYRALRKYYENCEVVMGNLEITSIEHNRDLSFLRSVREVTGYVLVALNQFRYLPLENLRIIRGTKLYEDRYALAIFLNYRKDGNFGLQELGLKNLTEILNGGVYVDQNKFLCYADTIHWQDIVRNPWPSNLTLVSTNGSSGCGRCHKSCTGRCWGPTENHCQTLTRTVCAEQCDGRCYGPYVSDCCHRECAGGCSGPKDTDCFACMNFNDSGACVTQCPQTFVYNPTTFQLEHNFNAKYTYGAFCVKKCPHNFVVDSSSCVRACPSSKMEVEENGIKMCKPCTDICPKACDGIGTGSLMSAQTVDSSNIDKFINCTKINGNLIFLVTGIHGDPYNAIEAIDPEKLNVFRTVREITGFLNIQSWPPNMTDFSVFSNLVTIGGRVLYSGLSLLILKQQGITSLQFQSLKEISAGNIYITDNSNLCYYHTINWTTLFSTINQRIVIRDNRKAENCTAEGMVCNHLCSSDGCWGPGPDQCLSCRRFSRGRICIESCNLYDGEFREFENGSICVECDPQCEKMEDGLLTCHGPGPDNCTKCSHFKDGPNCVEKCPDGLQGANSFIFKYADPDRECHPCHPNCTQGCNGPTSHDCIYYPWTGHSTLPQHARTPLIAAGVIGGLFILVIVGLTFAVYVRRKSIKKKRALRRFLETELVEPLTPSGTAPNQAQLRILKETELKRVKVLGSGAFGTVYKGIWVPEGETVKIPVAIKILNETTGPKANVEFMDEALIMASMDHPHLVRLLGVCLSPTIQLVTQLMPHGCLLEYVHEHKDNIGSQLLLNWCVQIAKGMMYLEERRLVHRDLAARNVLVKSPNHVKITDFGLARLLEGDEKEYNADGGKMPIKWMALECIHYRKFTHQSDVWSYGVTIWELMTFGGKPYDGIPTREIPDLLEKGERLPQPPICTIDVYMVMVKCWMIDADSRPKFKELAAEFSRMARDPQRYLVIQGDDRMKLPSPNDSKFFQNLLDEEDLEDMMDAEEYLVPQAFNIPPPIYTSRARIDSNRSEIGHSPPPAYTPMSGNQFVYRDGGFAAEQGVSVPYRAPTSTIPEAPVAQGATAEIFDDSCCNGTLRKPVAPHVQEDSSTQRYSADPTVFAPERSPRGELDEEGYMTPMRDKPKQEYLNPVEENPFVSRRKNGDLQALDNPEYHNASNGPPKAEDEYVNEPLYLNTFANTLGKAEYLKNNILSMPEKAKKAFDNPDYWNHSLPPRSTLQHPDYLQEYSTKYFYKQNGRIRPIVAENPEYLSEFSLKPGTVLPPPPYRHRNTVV
- Run description: Caliper, Mobility shift assay off-chip
- Measurement setup: compound 0.02 µM
Parameter: inhibition (%)

                                smiles_repr  observed_value
0  Cc1ccc(Nc2nccc(N(C)c3ccc4c(C)n(C)nc4c3)n2)cc1S(N)(=O)=O             8.4
1  COc1cc2c(Oc3ccc4[nH]c(C)cc4c3F)ncnc2cc1OCCCN1CCCC1            17.2
2  CNC(=O)c1cc(Oc2ccc(NC(=O)Nc3ccc(Cl)c(C(F)(F)F)c3)cc2)ccn1            -0.4
3  CNC(=O)c1ccccc1Sc1ccc2c(/C=C/c3ccccn3)n[nH]c2c1             3.7
